# assay procedure: inhibitors of E-selectin induction by TNFa, primary screen, imaging, HUVEC, immunofluorescence, MLSMR starter and 10KST1 sets (AID 487);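 note: signal is fraction of cell area covered by stained E-selectin grains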
# recorded conditions: HUVEC TNFalpha-induced E-selectin immunofluorescence imaging, at 2 µM; hits give high values
The source made the active and inactive calls.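 Rule for the calls: active = visually confirmed hit in the image check and inhibition above 20%; inconclusive = visually confirmed hit but inhibition not above 20%; inactive = no visual hit in the image check.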
property name: inhibition

Solved entries:
CCOC(=O)c1[nH]c2cc3c(cc2c1NC(=O)CN1CCc2ccccc2C1)OCO3 = -11.1% (inactive)
O=C(c1coc(=O)c(Br)c1)N1CCCc2ccccc21 = -39.7% (inactive)
OC(CCN1CCCCC1)(c1ccccc1)c1ccccc1 = -75.5% (inactive)
CCN(CC)CCNC(=O)c1cc(Cl)c(N)cc1OC = -17.3% (inactive)
c1ccc(N2CCN(c3nc(-c4ccccn4)nc4ccccc34)CC2)cc1 = 22.4% (inactive)

Turning to the following compound.
Exercise: // inhibition lookup, key: O=C(O)c1cc(O)c2c(c1)C(=O)c1cccc(O)c1C2=O
Solution: -98.1% (inactive)
